- System: TK-10 renal
- Experimental Protocol: NCI-60 one-dose screen, 48 h
- Particulars: 10 µM
The panel holds about 83,000 compounds, 20% with a hit somewhere; the sample as a whole holds those more often. Activity calls are given as the source filed them. How the source made its calls: active means growth percent below 10; inactive means the rest.
Reply using exactly one outcome from class 1 (active), class 0 (inactive)

I would be grateful if you could indicate the recorded call for CC1(C)CC(OCCCC[P+](c2ccccc2)(c2ccccc2)c2ccccc2)CC(C)(C)N1O .
class 1

I would be grateful if you could indicate the recorded call for O=c1[nH]c(=O)n(C2C[C@@H](O)[C@@H](CO)O2)cc1F (some centres undefined) .
class 0

I would be grateful if you could indicate the recorded call for COc1ccc(-c2nc(SCC(=O)c3ccc(Br)cc3)[nH]c(=O)c2C#N)cc1 .
class 0

I would be grateful if you could indicate the recorded call for Nc1ccc2c(c1)Cc1cc(N)c(Cl)cc1-2 .
class 0

I would be grateful if you could indicate the recorded call for N#CCC1CCCC1 .
class 0

I would be grateful if you could indicate the recorded call for O=C1/C(=C/c2ccc(O)cc2)Oc2ccc(Cl)cc21 .
class 0

I would be grateful if you could indicate the recorded call for Cc1cccc2c1O/C(=C\c1ncc([N+](=O)[O-])n1C)C2=O .
class 1

I would be grateful if you could indicate the recorded call for CCCCOCCOCCOCc1cc2c(cc1Br)OCO2 .
class 0

I would be grateful if you could indicate the recorded call for CCSc1nc2c([nH]1)c(=O)n(C)c(=S)n2C .
class 0

I would be grateful if you could indicate the recorded call for CCCCn1c(=O)[nH]c(N)c(C(c2ccc(Cl)cc2)c2c(N)[nH]c(=O)n(CCCC)c2=O)c1=O .
class 0

I would be grateful if you could indicate the recorded call for O=C(Nc1cccc(-c2nc3ccccc3[nH]2)c1)c1cccc(NC(=O)c2ccco2)c1 .
class 0

I would be grateful if you could indicate the recorded call for COc1ccc(C2C=C(c3ccc(Cl)cc3)N=C3SC=CN32)c(Br)c1 (centres undefined) .
class 0

I would be grateful if you could indicate the recorded call for CCCn1c(=O)c2c(nc(-c3cccc(OCCCCl)c3)n2C)n(CCC)c1=O .
class 0

I would be grateful if you could indicate the recorded call for COc1ccc(OC)c([N+](=O)[O-])c1C=O .
class 0

I would be grateful if you could indicate the recorded call for FC(F)(F)c1ccc(-c2cnc(Br)nc2NC2CCCCCC2)cc1 .
class 0

I would be grateful if you could indicate the recorded call for CCOC(=O)CSC(=S)SCC(=O)OCC .
class 0

I would be grateful if you could indicate the recorded call for COc1ccc(-c2ccc(-c3ccc(C(=N)N)c(F)c3)s2)cc1 .
class 1

I would be grateful if you could indicate the recorded call for Nc1nc2c(ncn2C2OC3COP(=O)(O)OC4C(COP(=O)(O)OC2C3O)OC(n2cnc3c(N)ncnc32)C4O)c(=O)[nH]1 (centres undefined) .
class 0

I would be grateful if you could indicate the recorded call for Cc1ccc(S(=O)(=O)N2CCc3ccccc3CC2)cc1 .
class 0

I would be grateful if you could indicate the recorded call for COc1ccc2c(=O)cc(C(Cl)(Cl)Cl)oc2c1 .
class 1

I would be grateful if you could indicate the recorded call for N#Cc1ncc(-c2cc(F)ccc2F)c(NC2CCCCCC2)n1 .
class 0

I would be grateful if you could indicate the recorded call for C#CCNCCCN1C(=O)c2ccc3c4c(ccc(c24)C1=O)C(=O)N(CCCNCC#C)C3=O .
class 1

I would be grateful if you could indicate the recorded call for C/C(=N\NC(=S)N1CCCC1)c1ccccn1 .
class 0

I would be grateful if you could indicate the recorded call for CN1/C(=C\C(I)C(I)C2=[N+](C)c3ccccc3C2(C)C)C(C)(C)c2ccccc21 (centres undefined) .
class 0

I would be grateful if you could indicate the recorded call for O=c1oc2cc(OS(=O)(=O)C3CC3)ccc2c2c1CCCCCC2 .
class 0

I would be grateful if you could indicate the recorded call for O=[N+]([O-])C1CC2C=CC1C2 (centres undefined) .
class 0

I would be grateful if you could indicate the recorded call for CCOC(=O)[C@@H](Cc1ccccc1)NC(=O)c1[nH]c2ccc(Cl)cc2c(=O)c1C .
class 0

I would be grateful if you could indicate the recorded call for O=C(Nc1cccc(C(F)(F)F)c1)C(Cl)Cl .
class 0

I would be grateful if you could indicate the recorded call for O=C(Nc1ccc(OS(=O)(=O)Cc2ccccc2)cc1)C12CC3CC(CC(C3)C1)C2 .
class 0

I would be grateful if you could indicate the recorded call for O=C(NC1CCN(Cc2ccccc2)CC1)c1cc(-c2ccncc2)nc2ccc(Cl)cc12 .
class 0

I would be grateful if you could indicate the recorded call for COc1ccc(Cn2cc3c(c2-c2cc(OC)c(OC)c(OC)c2)CCc2cnoc2-3)cc1N .
class 0

I would be grateful if you could indicate the recorded call for COc1ccc(-n2nnc3c(sc4ccccc43)c2=O)cc1 .
class 1

I would be grateful if you could indicate the recorded call for O=C/C=C/c1ccc([N+](=O)[O-])cc1Cl .
class 0

I would be grateful if you could indicate the recorded call for CC(=O)Oc1ccc(C2=Cc3ccc(OC(C)=O)cc3OC2C)cc1 (centres undefined) .
class 0

I would be grateful if you could indicate the recorded call for CC(=O)Nc1ccc2c(c1)C(N1CC3CCC(CC3)C1)c1ccccc1-2 (centres undefined) .
class 0

I would be grateful if you could indicate the recorded call for Oc1ccc(Cn2cc3c(c2-c2ccccc2)CCc2cnoc2-3)cc1 .
class 0

I would be grateful if you could indicate the recorded call for N#C/C(=C/c1cc([N+](=O)[O-])ccc1Cl)C(N)=O .
class 0

I would be grateful if you could indicate the recorded call for CC(=O)CS(C)(=O)=O .
class 0

I would be grateful if you could indicate the recorded call for COc1ccc(-c2cn[nH]c2-c2cc(OC)c(OC)c(OC)c2)cc1 .
class 0

I would be grateful if you could indicate the recorded call for Cc1cc(C#Cc2ccccc2)ccc1-n1c(/C=C/c2cc(O)ccc2O)nc2ccccc2c1=O .
class 0

I would be grateful if you could indicate the recorded call for CC(C)c1[nH]nc2c(NCc3ccc(-c4ccccn4)cc3)nc(SCCN)nc12 .
class 1

I would be grateful if you could indicate the recorded call for N#C/C(=C\N1C(=O)/C(=C/c2cccc([N+](=O)[O-])c2)SC1=S)c1nc2ccccc2s1 .
class 0

I would be grateful if you could indicate the recorded call for C=CCc1cc(Nc2c3ccc(Cl)cc3nc3ccc(OC)cc23)cc(CN(CC)CC)c1O .
class 0

I would be grateful if you could indicate the recorded call for COc1cc(C(c2c[nH]c3ccccc23)N2CCCC2)ccc1OCc1ccccc1 (centres undefined) .
class 0

FYI, the data here is from PubChem BioAssay (NCI).
